- ASSAY CONTEXT: in n-propyl acetate, 323.15 K
MEASUREMENT KIND: solubility (mole fraction)

| LINE NOTATION | MEASURED RESULT |
| --- | --- |
| O=C(O)c1cccc(O)c1 | 0.0769 |

----------
- ASSAY CONTEXT: in n-butyl acetate, 283.15 K

| LINE NOTATION | solubility (mole fraction) |
| --- | --- |
| O=C(O)c1cccc(O)c1 | 0.0397 |

----------
- ASSAY CONTEXT: in methanol, 308.15 K

| LINE NOTATION | solubility (mole fraction) |
| --- | --- |
| O=C(O)c1cccc(O)c1 | 0.11 |

----------
- ASSAY CONTEXT: in n-propanol, 323.15 K

| LINE NOTATION | solubility (mole fraction) |
| --- | --- |
| O=C(O)c1cccc(O)c1 | 0.133 |

----------
- ASSAY CONTEXT: in ethyl acetate, 288.15 K
MEASUREMENT KIND: solubility (mole fraction)

| LINE NOTATION | MEASURED RESULT |
| --- | --- |
| O=C(O)c1cccc(O)c1 | 0.0441 |

----------
- ASSAY CONTEXT: in methyl acetate, 313.15 K
MEASUREMENT KIND: solubility (mole fraction)

| LINE NOTATION | MEASURED RESULT |
| --- | --- |
| O=C(O)c1cccc(O)c1 | 0.0691 |

----------
- ASSAY CONTEXT: in n-butanol, 303.15 K
MEASUREMENT KIND: solubility (mole fraction)

| LINE NOTATION | MEASURED RESULT |
| --- | --- |
| O=C(O)c1cccc(O)c1 | 0.102 |

----------
- ASSAY CONTEXT: in acetonitrile, 318.15 K
MEASUREMENT KIND: solubility (mole fraction)

| LINE NOTATION | MEASURED RESULT |
| --- | --- |
| O=C(O)c1cccc(O)c1 | 0.0228 |

----------
- ASSAY CONTEXT: in acetone, 293.15 K

| LINE NOTATION | solubility (mole fraction) |
| --- | --- |
| O=C(O)c1cccc(O)c1 | 0.116 |

----------
- ASSAY CONTEXT: in n-propanol, 278.15 K

| LINE NOTATION | solubility (mole fraction) |
| --- | --- |
| O=C(O)c1cccc(O)c1 | 0.0827 |

----------
- ASSAY CONTEXT: in n-pentanol, 278.15 K
MEASUREMENT KIND: solubility (mole fraction)

| LINE NOTATION | MEASUREMENT KIND | MEASURED RESULT |
| --- | --- | --- |
| O=C(O)c1cccc(O)c1 | solubility (mole fraction) | 0.0774 |

----------
- ASSAY CONTEXT: in n-propyl acetate, 308.15 K

| LINE NOTATION | solubility (mole fraction) |
| --- | --- |
| O=C(O)c1cccc(O)c1 | 0.061 |

----------
- ASSAY CONTEXT: in methanol, 298.15 K

| LINE NOTATION | solubility (mole fraction) |
| --- | --- |
| O=C(O)c1cccc(O)c1 | 0.0995 |

----------
- ASSAY CONTEXT: in ethanol, 288.15 K

| LINE NOTATION | solubility (mole fraction) |
| --- | --- |
| O=C(O)c1cccc(O)c1 | 0.101 |

----------
- ASSAY CONTEXT: in n-butyl acetate, 323.15 K

| LINE NOTATION | solubility (mole fraction) |
| --- | --- |
| O=C(O)c1cccc(O)c1 | 0.0693 |

----------
- ASSAY CONTEXT: in methanol, 303.15 K
MEASUREMENT KIND: solubility (mole fraction)

| LINE NOTATION | MEASUREMENT KIND | MEASURED RESULT |
| --- | --- | --- |
| O=C(O)c1cccc(O)c1 | solubility (mole fraction) | 0.105 |

----------
- ASSAY CONTEXT: in isopropyl acetate, 313.15 K

| LINE NOTATION | solubility (mole fraction) |
| --- | --- |
| O=C(O)c1cccc(O)c1 | 0.0552 |
